# key: entry, value: cell viability
- Test system: SEM cells
- Experiment Notes: cell viability relative to DMSO control; higher = less cytotoxic
- Assay Conditions: RPMI 5 mM glucose + 10% dialyzed FBS; 48 h; 0.00234 µM
State just the number; it will be interpreted in %.

Some entries whose results are on file:
CCOC1=CC(=CC=C1C/2=N/[C@@](C)(C3=CC=C(Cl)C=C3)[C@](C)(N2C(=O)N4CCN(CC4)CC(=O)N5CCOCC5)C6=CC=C(Cl)C=C6)C(C)(C)C ... 99.8
CN(C)C[C@@H]1CC[N]2C=C(C3=C2C=CC=C3)C/4=C(/C(=O)NC4=O)C5=C[N](CCO1)C6=C5C=CC=C6 ... 47.9
COC(=O)[C@@H](N)CCCNC(=N)N[N+](=O)[O-] ... 26.2
CNCC(O)C(O)C(O)C(O)CO.O=C(O)c1ccc(-c2cc3cccnc3c(-c3ccc4nonc4c3)n2)cc1 ... 97.6
CC(C)C[C@H](NC(=O)[C@H](Cc1ccccc1)NC(=O)c1cnccn1)B(O)O ... 84.7
CC1(C)CC(O)CC(C)(C)N1[O] ... 94.6

Qu. Which cell viability is listed for `CCCCCCCCCCCCCCCCCCOP(=O)([O-])OC1CC[N+](C)(C)CC1` ?
Ans. 96.9

* * *

cell viability listing for selected compounds.
- Tested on: P12-Ichikawa
- Experiment Notes: cell viability relative to DMSO control; higher = less cytotoxic
- Assay Conditions: HPLM + 10% dialyzed FBS; 48 h; 0.0632 µM
# value in %; strip the unit string

OC1=CC=C(C=C1)\C2=C\C(=O)C3=C(O2)C=C(O)C=C3O ... 114

Qu. Find the measured cell viability: item `CNCC(O)C(O)C(O)C(O)CO.O=C(O)c1ccc(-c2cc3cccnc3c(-c3ccc4nonc4c3)n2)cc1` , target or system P12-Ichikawa.
Ans. 119

Qu. Query for P12-Ichikawa: what cell viability does the record show for `O=C1NC(=O)/C(=C/c2cccc(C(F)(F)F)c2)S1` ?
Ans. 103

Qu. # value lookup — system P12-Ichikawa, readout cell viability, item `CC1(C)CC(O)CC(C)(C)N1[O]`
Ans. 128

Qu. Can you look up cell viability on P12-Ichikawa for `Cc1cn(CCN2CCN(c3ccccc3-c3cc(C#N)cc(C(=O)NCCCN4CCCC4)c3)CC2)c2ccccc12` ?
Ans. 109

* * *

Measured cell viability of individual entries
- Tested on: P12-Ichikawa
- Experiment Notes: cell viability relative to DMSO control; higher = less cytotoxic
- Assay Conditions: RPMI 5 mM glucose + 10% FBS; 48 h; 0.0211 µM
Numeric only. Scale: %

NCC(=O)Nc1ccc(-n2nc(C(F)(F)F)cc2-c2ccc3c(ccc4ccccc43)c2)cc1 ... 133
CN[C@@H]1C[C@H]2O[C@@](C)([C@@H]1OC)n1c3ccccc3c3c4c(c5c6ccccc6n2c5c31)C(=O)N[C@H]4O ... 84.2
CC(C)c1ccccc1Cc1cc(C(=O)Nc2ccc([S+](=O)([O-])c3ccccc3C(C)(C)C)cc2)c(O)c(O)c1O ... 114

Now consider a different compound.
Qu. Record request: cell viability value, item COc1cc(-c2nn(C3CCC(N4CCN(C(C)=O)CC4)CC3)c3ncnc(N)c23)ccc1NC(=O)c1cc2ccccc2n1C (centres undefined)
Ans. 115

* * *

- Tested on: NOMO1
- Experiment Notes: cell viability relative to DMSO control; higher = less cytotoxic
- Assay Conditions: HPLM + 10% dialyzed FBS; 48 h; 46.1 µM
Quick reference: cell viability of the listed items.
Kindly answer with a numeric value in %, unit omitted.

Illustrative cases are given below, each with its answer.
Cc1cc(O)c2c(c1)C(=O)c1cc(O)cc(O)c1C2=O ... 87.7
CC(C)C[C@H](NC(=O)[C@H](Cc1ccccc1)NC(=O)c1cnccn1)B(O)O ... 0.274
C#C[C@]1(O)CC[C@H]2[C@@H]3CCc4cc(OC)ccc4[C@H]3CC[C@@]21C ... 95.4
CC(NCc1ccc2c(c1)[nH]/c(=N\C(=O)c1ccc(-c3cn[nH]c3)s1)n2CC(C)(C)O)C(C)(C)C (stereo not drawn) ... 4.17
OC(COC1=C2C(=O)\C=C(/OC2=CC=C1)C([O-])=O)COC3=C4C(=O)\C=C(/OC4=CC=C3)C([O-])=O ... 93
COC1=CC2=C(C=C1OC)[C@H]3[C@@H](CO2)OC4=C(C=CC5=C4\C=C/C(C)(C)O5)C3=O ... 10.3
CCN(C)C(=O)Oc1cccc([C@H](C)N(C)C)c1 ... 106
O=C(CCCCCCC(=O)Nc1ccccc1)NO ... 5.95

Okay, next one:
Qu. Fill in the recorded cell viability for this compound, with NOMO1 as test system: `CCN(CC)CCN1C(=O)\C(=N/C2=CC=CC=C12)CC3=CC=C(OC)C=C3`
Ans. 116

* * *

- Tested on: SEM cells
- Experiment Notes: cell viability relative to DMSO control; higher = less cytotoxic
- Assay Conditions: RPMI 5 mM glucose + 10% dialyzed FBS; 48 h; 46.1 µM
This section presents compounds with their documented cell viability values.
Kindly provide the numeric value in % only, without the unit symbol.

Examples from the recorded data:
Cc1ccc(C(=O)c2cc(O)c(O)c([N+](=O)[O-])c2)cc1 ... 101
NC(=O)Nc1cc(-c2ccc(CN3CCOCC3)cc2)sc1C(N)=O ... 5.7
CC(NCc1ccc2c(c1)[nH]/c(=N\C(=O)c1ccc(-c3cn[nH]c3)s1)n2CC(C)(C)O)C(C)(C)C (stereo not drawn) ... 1.53
Oc1cc(O)cc(/C=C/c2ccc(O)c(O)c2)c1 ... 27.3

Qu. Provide value of cell viability for this record tested with SEM cells: CC(C)NCC(O)COc1ccc(CCOCC2CC2)cc1 (stereo not drawn)
Ans. 108

Qu. Could you share what cell viability was measured for `CC(C)(C)NC(=O)[C@H]1CC[C@H]2[C@@H]3CC[C@H]4NC(=O)\C=C/[C@]4(C)[C@H]3CC[C@]12C` , tested on SEM cells?
Ans. 91.2

Qu. For the record `COc1cc([C@@H]2c3cc4c(cc3[C@@H](O[C@@H]3O[C@@H]5CO[C@@H](c6cccs6)O[C@H]5[C@H](O)[C@H]3O)[C@H]3COC(=O)[C@H]23)OCO4)cc(OC)c1O` , what value of cell viability is listed for SEM cells?
Ans. 3.6

Qu. Look up cell viability with SEM cells for this compound: `COC1=CC2=C(C=C1OC)[C@H]3[C@@H](CO2)OC4=C(C=CC5=C4\C=C/C(C)(C)O5)C3=O`
Ans. 3.18

* * *

- System: SEM cells
- Experiment Notes: cell viability relative to DMSO control; higher = less cytotoxic
- Assay Conditions: HPLM + 10% dialyzed FBS; 48 h; 0.00234 µM
Here, each record is paired with measured cell viability data.
API: value field is a number in %; no unit string.

Examples from the recorded data:
O=[N+]([O-])c1cnc(Sc2nnc(O)n2-c2ccc3c(c2)OCCO3)s1 ... 69.9
Cc1cc(O)c2c(c1)C(=O)c1cc(O)cc(O)c1C2=O ... 108

Kindly review the next compound as well.
Qu. Query for SEM cells: what cell viability does the record show for `O=C1CCc2ccc(OCCCCN3CCN(c4cccc(Cl)c4Cl)CC3)cc2N1` ?
Ans. 121

* * *

- Test system: SEM cells
- Experiment Notes: cell viability relative to DMSO control; higher = less cytotoxic
- Assay Conditions: RPMI 5 mM glucose + 10% dialyzed FBS; 48 h; 46.1 µM
Please assign false whenever cell viability is at or above 50%, and true whenever it is below.

Use the examples below as a reference point.
NC\1=N\C(=O)N(\C=C1)[C@H]\2[C@H](O)[C@H](O)C(=C2F)\CO ... true
Cc1c(C(=O)Nc2cccc(C(F)(F)F)c2)cc(-c2ccccc2)n1CCCN1CCOCC1 ... true
N\C1=N\C2=C(N=C[N]2COC(CO)CO)C(=O)N1 ... true
O=C1CCc2ccc(OCCCCN3CCN(c4cccc(Cl)c4Cl)CC3)cc2N1 ... false

Now for another entry.
Qu. Please state whether cell viability is below 50% for `Cc1ccc(-c2ncn(-c3ccc(Nc4nccc(-c5cccc(N6CCOCC6)c5)n4)cc3)n2)cn1`
Ans. true

* * *

As shown below, each of these molecules has a reported cell viability value.
- System: SEM cells
- Experiment Notes: cell viability relative to DMSO control; higher = less cytotoxic
- Assay Conditions: RPMI 5 mM glucose + 10% FBS; 48 h; 0.00234 µM
Reply with just the number (in %).

Here is how some molecules turned out for cell viability.
COc1ccc(Nc2cc(-c3cnc(N)nc3)nc(N3CCOCC3)n2)cn1 ... 104
NCC(=O)Nc1ccc(-n2nc(C(F)(F)F)cc2-c2ccc3c(ccc4ccccc43)c2)cc1 ... 100
COc1ccc2c(c1OC)CN1CCc3cc4c(cc3C1C2)OCO4 (stereo not given) ... 93.6
Nc1nc(F)nc2c1ncn2[C@@H]1O[C@H](CO)[C@@H](O)[C@H]1O ... 119

Okay, now this molecule:
Qu. Query: cell viability; subject: `Cc1cc(Cl)ccc1OCCCC(=O)NO`
Ans. 101
